- measurement_protocol: 14-day oral gavage toxicokinetic study in rats
- Type: in vivo
- test_parameters: male, rat, plasma, po, 15 mg/kg, Mean Compound 1 Plasma Concentration, rats, oral 15 mg/kg, Day 14, 8 h, Male
outcome_measure: concentration at 8 h (ng/mL)
Answer format: numeric, ng/mL implied, no suffix.

Item under review: CN1CCN(c2ccc(Nc3ncc4cc5n(c4n3)C3(CCCCC3)CNC5=O)nc2)CC1 [Compound 1] . Reported concentration at 8 h?
1170

====

- measurement_protocol: 14-day oral gavage toxicokinetic study in rats
- Assay type: in vivo
- test_parameters: male, rat, plasma, po, 15 mg/kg, Individual Compound 1 Plasma Concentration, rats, daily oral 15 mg/kg, Day 1, Male, 2 h
outcome_measure: concentration at 2 h (ng/mL)
Answer format: numeric, ng/mL implied, no suffix.

Item under review: CN1CCN(c2ccc(Nc3ncc4cc5n(c4n3)C3(CCCCC3)CNC5=O)nc2)CC1 [Compound 1] . Reported concentration at 2 h?
759

====

- measurement_protocol: Topotecan PK following Compound 1 infusion
- Type: in vivo, human
- test_parameters: human, plasma, intravenous, Topotecan 0.75 mg/m^2 (Cohort 3) with Compound 1 200 mg/m^2, Day 1, individual subjects; read-out: AUCx5 (converted)
outcome_measure: AUC (µM·h)
Answer format: numeric, µM·h implied, no suffix.

Item under review: CC[C@@]1(O)C(=O)OCc2c1cc1n(c2=O)Cc2cc3c(CN(C)C)c(O)ccc3nc2-1.Cl [topotecan] . Reported AUC?
0.927

====

- measurement_protocol: 14-day oral gavage toxicokinetic study in rats
- Assay type: in vivo
- test_parameters: female, rat, plasma, po, 30 mg/kg, Mean Compound 1 Plasma Concentration, rats, oral 30 mg/kg, Day 1, 4 h, Female
- Method: Plasma was obtained from blood samples collected from rats in a composite sampling scheme, with 3 samples collected per sex, per dose, at each target collection time, as illustrated in Table 21 to Table 25. […] The following parameters were determined: […] A value of 0 ng/mL was assigned to all values below the lower limit of quantitation (BLQ, <10.0 ng/mL). […] CL: Clearance (L/h/kg), calculated as the dose divided by AUC(0-t). […] Cmax/Dose: Normalized Cmax, calculated as Cmax divided by total dose. […]
outcome_measure: concentration at 4 h

Item under review: `CN1CCN(c2ccc(Nc3ncc4cc5n(c4n3)C3(CCCCC3)CNC5=O)nc2)CC1` . Reported concentration at 4 h?
2510 ng/mL

====

- measurement_protocol: Single escalating dose IV infusion pharmacokinetics in healthy volunteers (noncompartmental)
- Type: in vivo, human
- test_parameters: both sexes, human, plasma, iv, 48 mg/m^2, Cohort 4, 48 mg/m^2 IV; range over 3 subjects; read-out: concentration at 24.5 hours after the start of infusion
outcome_measure: concentration at 24.5 h

Item under review: `CN1CCN(c2ccc(Nc3ncc4cc5n(c4n3)C3(CCCCC3)CNC5=O)nc2)CC1` . Reported concentration at 24.5 h?
2.08 to 4.66 ng/mL

====

- measurement_protocol: 14-day oral gavage toxicokinetic study in rats
- Format: in vivo
- test_parameters: female, rat, plasma, po, 15 mg/kg, Mean Compound 1 Plasma Concentration, rats, oral 15 mg/kg, Day 14, 1 h, Female
outcome_measure: concentration at 1 h
Answer format: value, then unit.

Item under review: `CN1CCN(c2ccc(Nc3ncc4cc5n(c4n3)C3(CCCCC3)CNC5=O)nc2)CC1` . Reported concentration at 1 h?
1450 ng/mL

====

- measurement_protocol: Single escalating dose IV infusion pharmacokinetics in healthy volunteers (noncompartmental)
- Type: in vivo, human
- test_parameters: both sexes, human, plasma, iv, 48 mg/m2, Cohort 4, 48 mg/m^2 IV; mean; read-out: Cmax averaged
outcome_measure: Cmax
Answer format: value, then unit.

Item under review: `CN1CCN(c2ccc(Nc3ncc4cc5n(c4n3)C3(CCCCC3)CNC5=O)nc2)CC1` . Reported Cmax?
224 ng/mL

====

- measurement_protocol: Single escalating dose IV infusion pharmacokinetics in healthy volunteers (noncompartmental)
- Type: in vivo, human
- test_parameters: both sexes, human, plasma, iv, 12 mg/m2, Cohort 2, 12 mg/m^2 IV; median; read-out: median Tmax
outcome_measure: Tmax (min)
Answer format: numeric, min implied, no suffix.

Item under review: CN1CCN(c2ccc(Nc3ncc4cc5n(c4n3)C3(CCCCC3)CNC5=O)nc2)CC1 [Compound 1] . Reported Tmax?
30

====

- measurement_protocol: 14-day oral gavage toxicokinetic study in rats
- Type: in vivo
- test_parameters: male, rat, plasma, po, 15 mg/kg, Mean Compound 1 Plasma Concentration, rats, oral 15 mg/kg, Day 14, 1 h, Male
outcome_measure: concentration at 1 h (ng/mL)
Answer format: numeric, ng/mL implied, no suffix.

Item under review: `CN1CCN(c2ccc(Nc3ncc4cc5n(c4n3)C3(CCCCC3)CNC5=O)nc2)CC1` . Reported concentration at 1 h?
842

====

- measurement_protocol: 14-day oral gavage toxicokinetic study in rats
- Type: in vivo
- test_parameters: female, rat, plasma, po, 15 mg/kg, Mean Compound 1 Plasma Concentration, rats, oral 15 mg/kg, Day 1, 2 h, Female
outcome_measure: concentration at 2 h (ng/mL)
Answer format: numeric, ng/mL implied, no suffix.

Item under review: `CN1CCN(c2ccc(Nc3ncc4cc5n(c4n3)C3(CCCCC3)CNC5=O)nc2)CC1` . Reported concentration at 2 h?
1910

====

- measurement_protocol: 14-day oral gavage toxicokinetic study in rats
- Type: in vivo
- test_parameters: male, rat, plasma, po, 2 mg/kg, Mean Compound 1 Plasma Concentration, rats, oral 2 mg/kg, Day 1, 8 h, Male
- Protocol: Plasma was obtained from blood samples collected from rats in a composite sampling scheme, with 3 samples collected per sex, per dose, at each target collection time, as illustrated in Table 21 to Table 25. […] The following parameters were determined: […] A value of 0 ng/mL was assigned to all values below the lower limit of quantitation (BLQ, <10.0 ng/mL). […] CL: Clearance (L/h/kg), calculated as the dose divided by AUC(0-t). […] Cmax/Dose: Normalized Cmax, calculated as Cmax divided by total dose. […]
outcome_measure: concentration at 8 h
Answer format: value, then unit.

Item under review: CN1CCN(c2ccc(Nc3ncc4cc5n(c4n3)C3(CCCCC3)CNC5=O)nc2)CC1 [Compound 1] . Reported concentration at 8 h?
90.4 ng/mL

====

- measurement_protocol: 14-day oral gavage toxicokinetic study in rats
- Assay type: in vivo
- test_parameters: female, rat, plasma, po, 30 mg/kg, Individual Compound 1 Plasma Concentration, rats, daily oral 30 mg/kg, Day 1, Female, 1 h
outcome_measure: concentration at 1 h (ng/mL)
Answer format: numeric, ng/mL implied, no suffix.

Item under review: `CN1CCN(c2ccc(Nc3ncc4cc5n(c4n3)C3(CCCCC3)CNC5=O)nc2)CC1` . Reported concentration at 1 h?
2500

====

- measurement_protocol: Topotecan PK following Compound 1 infusion
- Format: in vivo, human
- test_parameters: human, plasma, intravenous, Topotecan […]^2 (Cohort 1) with Compound 1 200 mg/m^2, Day 1, individual subjects; read-out: t½ (converted)
outcome_measure: half-life (h)
Answer format: numeric, h implied, no suffix.

Item under review: `CC[C@@]1(O)C(=O)OCc2c1cc1n(c2=O)Cc2cc3c(CN(C)C)c(O)ccc3nc2-1.Cl` . Reported half-life?
4.56

====

- measurement_protocol: 14-day oral gavage toxicokinetic study in rats
- Format: in vivo
- test_parameters: both sexes, rat, plasma, po, 30 mg/kg, Mean Compound 1 Plasma Concentration, rats, oral 30 mg/kg, Day 14, 0.5 h, Overall
- Experimental: Plasma was obtained from blood samples collected from rats in a composite sampling scheme, with 3 samples collected per sex, per dose, at each target collection time, as illustrated in Table 21 to Table 25. […] The following parameters were determined: […] A value of 0 ng/mL was assigned to all values below the lower limit of quantitation (BLQ, <10.0 ng/mL). […] CL: Clearance (L/h/kg), calculated as the dose divided by AUC(0-t). […] Cmax/Dose: Normalized Cmax, calculated as Cmax divided by total dose. […]
outcome_measure: concentration at 0.5 h (ng/mL)
Answer format: numeric, ng/mL implied, no suffix.

Item under review: `CN1CCN(c2ccc(Nc3ncc4cc5n(c4n3)C3(CCCCC3)CNC5=O)nc2)CC1` . Reported concentration at 0.5 h?
1270

====

- measurement_protocol: 14-day oral gavage toxicokinetic study in rats
- Type: in vivo
- test_parameters: male, rat, plasma, po, 5 mg/kg, Individual Compound 1 Plasma Concentration, rats, daily oral 5 mg/kg, Day 1, Male, 24 h
- Protocol: Plasma was obtained from blood samples collected from rats in a composite sampling scheme, with 3 samples collected per sex, per dose, at each target collection time, as illustrated in Table 21 to Table 25. […] The following parameters were determined: […] A value of 0 ng/mL was assigned to all values below the lower limit of quantitation (BLQ, <10.0 ng/mL). […] CL: Clearance (L/h/kg), calculated as the dose divided by AUC(0-t). […] Cmax/Dose: Normalized Cmax, calculated as Cmax divided by total dose. […]
outcome_measure: concentration at 24 h (ng/mL)
Answer format: numeric, ng/mL implied, no suffix.

Item under review: `CN1CCN(c2ccc(Nc3ncc4cc5n(c4n3)C3(CCCCC3)CNC5=O)nc2)CC1` . Reported concentration at 24 h?
26.5
